Target: Protein RecA (Mycobacterium tuberculosis)
Experiment: Fluorescence Cell-Free Homogeneous Dose Retest to Identify Inhibitors of RecA-Intein Splicing Activity. [Related pubchem assays (depositor defined):AID2097, AID2223, AID489010, AID492950]
Type: functional
The source made the active and inactive calls. Cut-off read from the data, not from the text of the source: actives have a measured EC50 and inactives only a lower limit.
QUANTITY_MEASURED: EC50

For the compound Cc1ccc(C(c2c(C)n[nH]c2O)c2c(C)n[nH]c2O)cc1 , what EC50 is on record?
0.248 µM (active)

What value of EC50 has been reported for the following compound? Cc1ccc(-c2ccc(/C=N/NC3=NC(=O)C(CC(=O)O)S3)o2)c([N+](=O)[O-])c1 (stereo unspecified)
10.5 µM (active)

GET /values?readout=EC50&item= Cc1ccc(Sc2oc(/C=N/n3cnnc3)cc2Br)cc1
9.82 µM (active)

Please report the recorded EC50 for O=C(C(Cl)Cl)N1c2ccccc2OCC1c1ccccc1 (stereo unspecified) .
1.25 µM (active)

Name the reported EC50 value associated with the compound Oc1nc2ccccc2n2c(-c3ccccc3)nnc12
12.8 µM (active)

Query: EC50; subject: CC1=NNC(=O)C1Cc1ccccc1C (stereo unspecified)
0.329 µM (active)

// EC50 lookup, key: Cc1c(C)n(O)c2ccc3nonc3c12
3.67 µM (active)

Field request: EC50 | item: Cc1ccc(/N=C2\C(Cl)=C(O)OC2OC(=O)c2ccco2)cc1C (stereo unspecified)
8.65 µM (active)

Field request: EC50 | item: O=C1C=C(NCc2ccccc2)c2ccccc2C1=O
0.774 µM (active)

Suppose we examine the compound COc1ccc(C2C(C#N)=C(N)Oc3[nH]nc(C)c32)cc1CSc1ccccn1 (stereo unspecified) ; what EC50 value has been reported?
6.32 µM (active)

Can you share its EC50? I mean this compound: CC(C)(C)c1csc(NC(=O)c2c(F)c(F)c(F)c(F)c2F)n1
18.4 µM (active)

Field request: EC50 | item: Cc1sc(NC(=O)CCl)c(C(=O)c2ccccc2)c1C
3.55 µM (active)

What value of EC50 has been reported for the following compound? COc1ccc(/C=C/C(=O)c2ccncc2)c2ccccc12
8.84 µM (active)

// query EC50 value for entry C=C(C)C(=O)NC1=NN(c2ccccc2)C(=O)C1
37 µM (active)

For Clc1ccc(C2=C3CCCCn4c(-c5ccccc5)c[n+](c43)C2)cc1 , what is its reported EC50?
50 µM (active)

Which EC50 is listed for c1ccc(CCNCc2cccs2)cc1 ?
> 380 µM (inactive)
